# target or test system: Glc(b1-4)Glc
# test: glycan array binding signal (z-score within array); higher = stronger binding
# assay context: glycan notation: IUPAC condensed, linker removed
The full list was thinned out, with the strongest signals kept by preference.
assay metric: glycan array binding signal (z-score)
One number for each entry.

binder	glycan array binding signal (z-score)
EULS2 M1 (Oryza sativa) (protein) MVYCRANPNYAMTARNGAVVLAPANPKDEYQHWIKDMRWSTSIKDEEGYPAFALVNKATGQAIKHSLGQSHPVRLVPYNPEVMDESVLWTESRDVGNGFRCIRMVNNIYLNFDAFHGDKYHGGVRDGTDIVLWKLCEGDNQRWKIQPYYILEQKLISEEDLNSAVDHHHHHH	2.81

Would you kindly look at the next entry?
Task: Data request, read-out glycan array binding signal (z-score), for Eosinophil cationic protein (ECP) (Homo sapiens), P12724 (protein) MVPKLFTSQICLLLLLGLMGVEGSLHARPPQFTRAQWFAIQHISLNPPRCTIAMRAINNYRWRCKNQNTFLRTTFANVVNVCGNQSIRCPHNRTLNNCHRSRFRVPLLHCDLINPGAQNISNCTYADRPGRRFYVVACDNRDPRDSPRYPVVPVHLDTTI
Result: 0.024
